tested on: Homo sapiens (human subject panel, olfactory perception); test: perceived odor intensity rating (rating 0-100); higher = stronger perceived smell; settings: odor dilution in paraffin oil: 1/1,000
outcome measure: perceived odor intensity rating

INSERT INTO results (compound, reported_measurement) VALUES
  ('OC1CCC2CCCCC2C1 (configuration not stated) [Decahydro-2-naphthol]', 54.8),
  ('C[C@H](N)C(=O)O [L-Alanine]', 14.7),
  ('O=C1CCCCC1 [Cyclohexanone]', 69.9),
  ('CCCCCCCO [heptanol]', 62.7),
  ('CC/C=C\CCOC(=O)c1ccccc1 [cis-3-Hexenyl benzoate]', 40.4),
  ('N[C@@H](Cc1c[nH]cn1)C(=O)O [L-Histidine]', 19.9),
  ('CC1CCC(=O)O1 (configuration not stated) [gamma-valerolactone]', 26.9),
  ('CCC(O)c1ccccc1 (configuration not stated) [1-Phenyl-1-propanol]', 36.6),
  ('CC/C=C\CCOC(=O)C(C)O (stereo not drawn) [cis-3-Hexenyl lactate]', 67.2),
  ('C=C1CCC2CC1C2(C)C (single isomer, unassigned; (-)) [(-)-beta-Pinene]', 32.2),
  ('CCCCCCCCO [octanol]', 65.6),
  ('CCOc1ccc(C=O)cc1 [4-Ethoxybenzaldehyde]', 65.2);
